- test description: solubility of islatravir in PBS
- Assay type: physicochemical
- settings: phosphate buffered saline (PBS), aqueous buffer, 37° C.
result type: solubility (mg/mL)
Answers are plain numbers, in mg/mL.

Query (compound): "C#C[C@]1(CO)O[C@@H](n2cnc3c(N)nc(F)nc32)C[C@@H]1O" ; field requested: solubility
1.35
